- Assayed Target: Recombinant full-length human IDO1 (Homo sapiens (Human))
- Protocol Details: IDO1 enzymatic assay (IDO inhibitory activity)
- Assay type: biochemical
- Condition Label: 2 nM enzyme, 5 μM L-tryptophan, pH6.5, 30 min pre-incubation, NFK quantified by LCMS; mean values if measured multiple times; read-out: hIDO activity (IC50 in nM)
Response field label: string, one of TRUE (IC50 strictly below 40 nM) or FALSE.

| Compound | Cat |
| --- | --- |
| CCC1CCC(C(O)c2c(C3CC3)sc3cncn23)CC1 (racemic) | TRUE |
| OC(CC1CCCCC1)c1c(C2CCC2)sc2cncn12 (racemic) | FALSE |
| CC1(C)CCC(C[C@H](O)c2c(C3CC3)sc3cncn23)C1 (stereo partly drawn) [Example 34a] | TRUE |
| OC(c1cn(C2CCCCC2)nn1)c1c(C2CC2)sc2cncn12 (racemic) | FALSE |
| CC(C)C1CCC(C(O)c2c(C3CC3)sc3cncn23)CC1 (racemic) | FALSE |
| CCn1cc(C(O)c2c(C3CC3)sc3cncn23)nn1 (racemic) | FALSE |
| OC(CC1CCCCC1)c1c(-c2ccsc2)sc2cncn12 (racemic) | FALSE |
| CC(C)c1sc2cncn2c1[C@@H](O)CC1CCCCC1 | TRUE |
| CCC1CCCC1C(O)c1c(C2CC2)sc2cncn12 (stereo not drawn) | TRUE |

----------
Overview of recorded log10 IC50 for various molecules
- Assayed Target: Recombinant full-length human IDO1 (Homo sapiens (Human), UniProt P14902)
- Sequence (P14902 whole entry): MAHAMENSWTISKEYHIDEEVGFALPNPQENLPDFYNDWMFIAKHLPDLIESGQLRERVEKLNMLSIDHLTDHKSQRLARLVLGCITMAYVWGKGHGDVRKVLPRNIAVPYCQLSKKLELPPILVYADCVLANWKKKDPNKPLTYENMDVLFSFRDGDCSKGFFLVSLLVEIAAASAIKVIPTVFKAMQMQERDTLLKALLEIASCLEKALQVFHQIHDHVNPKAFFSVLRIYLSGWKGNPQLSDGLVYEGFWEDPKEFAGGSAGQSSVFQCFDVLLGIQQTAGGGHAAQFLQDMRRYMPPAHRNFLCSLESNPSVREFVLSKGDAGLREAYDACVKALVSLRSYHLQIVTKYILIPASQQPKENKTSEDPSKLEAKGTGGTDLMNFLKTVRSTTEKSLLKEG
- Protocol Details: IDO1 enzymatic assay (IDO inhibitory activity)
- Type: biochemical
- Condition Label: 2 nM enzyme, 5 μM L-tryptophan, pH6.5, 30 min pre-incubation, NFK quantified by LCMS; mean values if measured multiple times; read-out: hIDO activity (IC50 in nM)
Value Kind: log10 IC50 (log10 of the value in nM)

| Molecule | Experimental Result |
| --- | --- |
| OC(CC1CCC2CCCCC2C1)c1c(C2CC2)sc2cncn12 (centres unmarked) | 2.69 |
| OC(c1c(C2CC2)sc2cncn12)C12CCC(c3ccccc3)(C1)C2 (racemic) | 1.79 |
| O[C@@H](c1ccccc1)c1c(C2CC2)sc2cncn12 [Example 50a] | 1.30 |
| OC(c1cccc(F)c1)c1c(C2CC2)sc2cncn12 (racemic) | 1.52 |
| Cc1cccc(C(O)c2c(C3CC3)sc3cncn23)c1 (racemic) | 1.81 |
| OC(c1c(C2CC2)sc2cncn12)C1CCc2ccccc2C1 (centres unmarked) | 1.53 |
| OC(c1c(C2CC2)sc2cncn12)C1CCC(C(F)(F)F)CC1 (racemic) | 1.64 |
| OC(Cc1c(Cl)cccc1Cl)c1c(C2CC2)sc2cncn12 (racemic) | 2.46 |
| OC(c1ccc(F)cc1)c1c(C2CC2)sc2cncn12 (racemic) | 1.52 |
| OC(c1ccc(Cl)cc1)c1c(C2CC2)sc2cncn12 (racemic) | 1.81 |
| CC1CCC(C(O)c2c(C(F)(F)F)sc3cncn23)CC1 (racemic) | 1.92 |
| CC1(CC(O)c2c(C3CC3)sc3cncn23)CCC1 (racemic) | 1.62 |
| OC(c1c(C(F)(F)F)sc2cncn12)C1CCCCC1 (racemic) | 1.43 |
| CC(C)CC1CCC(C(O)c2c(C3CC3)sc3cncn23)C1 (centres unmarked) | 1.86 |
| CC1(C)CCCCC1CC(O)c1c(C2CC2)sc2cncn12 (centres unmarked) | 2.17 |
| OC(c1c(C2CC2)sc2cncn12)C1CCCCC1 (racemic) | 1.18 |
| OC(CC1CCCCCC1)c1c(C2CC2)sc2cncn12 (racemic) | 1.39 |
| OC(c1cnn(C2CCCC2)c1)c1c(C2CC2)sc2cncn12 (racemic) | 2.05 |
| O[C@H](c1c(C2CCCC2)sc2cncn12)C1CCCCC1 | 2.12 |
| OC(c1c(C2CC2)sc2cncn12)C1CCCC1c1ccccc1 (centres unmarked) | 2.47 |
| OC(CC1CCCC1c1ccccc1)c1c(C2CC2)sc2cncn12 (centres unmarked) | 2.14 |
| CC1CCCC1C(O)c1c(C(F)(F)F)sc2cncn12 (centres unmarked) | 2.28 |
| CC1(C)CCC(C(O)c2c(C3CC3)sc3cncn23)CC1 (racemic) | 1.40 |
| OC(CC1CCCCC1c1ccccc1)c1c(C2CC2)sc2cncn12 (centres unmarked) | 3.02 |
| OC(c1ccsc1)c1c(C2CC2)sc2cncn12 (racemic) | 1.89 |
| COC1CCCC(CC(O)c2c(C3CC3)sc3cncn23)C1 (centres unmarked) | 1.61 |

----------
- Assayed Target: Recombinant full-length human IDO1 (Homo sapiens (Human), UniProt P14902)
- Protocol Details: IDO1 enzymatic assay (IDO inhibitory activity)
- Assay type: biochemical
- Condition Label: 2 nM enzyme, 5 μM L-tryptophan, pH6.5, 30 min pre-incubation, NFK quantified by LCMS; mean values if measured multiple times; read-out: hIDO activity (IC50 in nM)
Response field label: string, one of Fulfilled (IC50 strictly below 40 nM) or Not fulfilled.

| Compound | Cat |
| --- | --- |
| CCCc1sc2cncn2c1C(O)CC1CCCCC1 (racemic) [Example 129] | Fulfilled |
| CC(C)(C)c1sc2cncn2c1C(O)C1CCCCC1 (racemic) [Example 11] | Not fulfilled |
| CC1(c2sc3cncn3c2C(O)C2CCCCC2)CC1 (racemic) [Example 170] | Not fulfilled |
| OC(c1c([C@@H]2C[C@H]2F)sc2cncn12)C1CCCCC1 (relative stereo) [Example 187] | Fulfilled |
| Cc1sc2cncn2c1C(O)C1(C)CCCCC1 (racemic) [Example 174] | Fulfilled |
| OC(CC1CCCC2CCCCC21)c1c(C2CC2)sc2cncn12 (stereo not drawn) [Example 89] | Not fulfilled |

----------
- Assayed Target: Recombinant full-length human IDO1 (Homo sapiens (Human), UniProt P14902)
- Protocol Details: IDO1 enzymatic assay (IDO inhibitory activity)
- Assay type: biochemical
- Condition Label: 2 nM enzyme, 5 μM L-tryptophan, pH6.5, 30 min pre-incubation, NFK quantified by LCMS; mean values if measured multiple times; read-out: hIDO activity (IC50 in nM)
Overview of recorded IC50 for various molecules

| Molecule | IC50 |
| --- | --- |
| CC1CCC(C(O)c2c(C3CC3)sc3cncn23)CC1 (racemic) | 15.8 nM |
| O[C@@H](CC1CCCCCC1)c1c(C2CC2)sc2cncn12 [Example 28a] | 22.2 nM |
| COc1ccc(C(O)c2c(C3CC3)sc3cncn23)cc1 (racemic) | 86.9 nM |
| CC(C)C1(C)CCC(C(O)c2c(C3CC3)sc3cncn23)C1 (stereo not shown) | 33.2 nM |
| OC(c1c(C2CC2)sc2cncn12)C1CCC(c2ccccc2)CC1 (racemic) | 43.7 nM |
| Cc1cc(-c2sc3cncn3c2C(O)C2CCCCC2)cs1 (racemic) | 766 nM |
| CC(C1CCCCC1)C(O)c1c(C2CC2)sc2cncn12 (stereo not shown) | 87.3 nM |
| OC(c1c(-c2cccnc2)sc2cncn12)C1CCCCC1 (racemic) | 342 nM |
| CC1(c2ccccc2)CCC(C(O)c2c(C3CC3)sc3cncn23)C1 (stereo not shown) | 76.7 nM |
| OC(c1ccc(C(F)(F)F)cc1)c1c(C2CC2)sc2cncn12 (racemic) | 305 nM |

----------
- Assayed Target: Recombinant human TDO comprising amino acids 19-407 (Homo sapiens (Human), UniProt P48775)
- Sequence (P48775 19-406 limits assumed): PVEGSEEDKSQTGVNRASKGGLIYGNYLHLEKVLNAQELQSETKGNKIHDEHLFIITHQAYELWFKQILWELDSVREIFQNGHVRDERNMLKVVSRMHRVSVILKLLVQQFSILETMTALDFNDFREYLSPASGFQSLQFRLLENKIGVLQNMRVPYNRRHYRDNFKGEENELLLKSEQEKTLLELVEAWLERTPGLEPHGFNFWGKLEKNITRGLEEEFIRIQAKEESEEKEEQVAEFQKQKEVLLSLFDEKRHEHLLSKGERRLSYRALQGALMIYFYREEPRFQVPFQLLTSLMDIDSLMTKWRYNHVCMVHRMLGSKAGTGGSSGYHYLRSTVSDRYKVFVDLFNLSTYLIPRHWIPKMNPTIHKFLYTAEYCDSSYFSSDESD
- Protocol Details: TDO2 enzymatic assay (TDO inhibitory activity)
- Format: biochemical
- Condition Label: 15 nM enzyme, 200 μM L-tryptophan, pH7, 30 min pre-incubation, NFK quantified by LCMS; mean values if measured multiple times; read-out: hTDO activity (IC50 in nM)
Response field label: string, one of Yes (IC50 strictly below 1000 nM) or No.

| Compound | Cat |
| --- | --- |
| CCc1sc2cncn2c1C(O)c1cn(C2CCCC2)nn1 (racemic) [Example 198] | No |
| OC(c1cnn(C2CCCC2)c1)c1c(C2CC2)sc2cncn12 (racemic) [Example 189] | No |
| Cc1ccc(C(O)c2c(C3CC3)sc3cncn23)cc1 (racemic) [Example 51] | No |
| OC(CC1CCCCC1)c1c(-c2ccccc2)sc2cncn12 (racemic) [Example 93] | Yes |
| O[C@H](c1c(C2CC2)sc2cncn12)C1CCCCC1 [Example 1a] | Yes |
| O[C@H](c1c(C2CC2)sc2cncn12)[C@H]1CC[C@H](c2ccccc2)CC1 [Example 73a] | No |
| Cc1sc2cncn2c1C(O)C1CCCC1 (racemic) [Example 113] | Yes |
| OC(CC1CCCCC1)c1c(Cl)sc2cncn12 (racemic) [Example 16] | No |
| OC(c1cccs1)c1c(Br)sc2cncn12 (racemic) [Example 32] | Yes |
| OC(c1c(-c2ccccc2)sc2cncn12)C1CCCCC1 (racemic) [Example 92] | Yes |
| OC(c1cn(C2CCC2)nn1)c1c(C2CC2)sc2cncn12 (racemic) [Example 196] | No |

src = patent US11267824B2
